melting point values for the compounds below.

Below, 3 compounds whose answers are already recorded.
# melting point of Cc1c(C)c2c(c(C)c1O)CCC(C)(C(=O)N1CCC(Oc3ccc([N+](=O)[O-])cc3)C1)O2 (stereo not drawn) = 176 to 178 °C

# melting point of "O=C(O)c1ccc(-n2cc3ccccc3n2)cc1" = 286 to 288 °C

# melting point of "Cn1c(-c2cccc(Cl)c2)cc(-c2cccc(Cl)c2)nc1=O" = 178 to 181 °C

***
# melting point of "Nc1nc(NC(=O)c2cccnc2)nc(-c2ccc3ccccc3c2O)n1" = 301 to 302 °C

# melting point of "CC1(c2oncc2C(=O)c2ccc(S(C)(=O)=O)cc2C(F)(F)F)CC1" = 141 to 142 °C

# melting point of "CCCc1c(OCCCOc2ccc(C(=O)C(=O)OCC)cc2)ccc(C(=O)OC)c1O" = 62 to 64 °C

# melting point of "O=C(NO)c1ccc(C(=O)NOCCCc2ccccc2)cc1" = 179 to 181 °C

# melting point of "O=C(NC(=O)c1ccco1)NC1CCN(Cc2ccc3ccccc3c2)CC1" = 157 to 159 °C

---

melting point values for the compounds below.

Below, 2 compounds whose answers are already recorded.
# melting point of "CC(C)n1nc(-c2ncc(N)nc2-c2ccccc2)ccc1=O" = 204 to 206 °C

# melting point of "COc1cc(CO)ccc1NC(C)=O" = 104 °C

Would you kindly look at the next entry?
# melting point of Cc1cc(C(=O)NC2CC2)ccc1N1CCN(Cc2cc(C)c3c(c2)NC(=O)C(C)O3)CC1 (stereo not drawn) = 241 to 242 °C

---

melting point values for the compounds below.

# melting point of CC(C)C(C)(C(N)=O)N1C(=O)c2ccc3ccsc3c2C1=O (stereo not given) = 199 to 200 °C

# melting point of CCOC(=O)C(C#N)=CC1C=C(OC)C(C(=O)OC)=C(OC)C1 (stereo not given) = 119 to 121 °C

# melting point of "O=S1(=O)N=CN(C2CC2)c2cc(F)cc(F)c21" = 167 to 168 °C

# melting point of "COCc1cc([N+](=O)[O-])c(Cl)cc1C#N" = 57 to 59 °C

# melting point of "O=C(NCc1ccccc1)Nc1cc(CNc2ccccc2C(=O)Nc2cccc(C(F)(F)F)c2)ccn1" = 153 °C

# melting point of CCn1cc(C(=O)O)c(=O)c2cc3cc(F)c(N4CCNC(c5ccc(F)cc5)C4)cc3nc21 (racemic) = 298 °C

***
# melting point of "CC1(C)C(=O)N(c2ccc(C#N)c(C(F)(F)F)c2)C(=O)N1C(=O)c1ccccc1" = 179 to 180 °C

---

melting point values for the molecules below.

Below, 2 molecules whose answers are already recorded.
# melting point of "O=C(Nc1ccc(-n2nc(C(F)(F)F)cc2C(F)(F)F)cc1)c1c(F)cccc1F" = 127 to 128 °C

# melting point of "COc1ccc(-c2cccc3c2N(S(=O)(=O)c2ccc(OC)cc2)CC3)cc1" = 176 to 177 °C

Would you kindly look at the next entry?
# melting point of N#CC(CCc1ccc(Cl)cc1)(c1ccccc1)c1cccnc1 (stereo not drawn) = 83 to 84 °C

---

melting point values for the molecules below.

# melting point of "CP(C)(=O)CN1CCC(c2nn(-c3ccc(C(F)(F)F)cc3)c3ccccc23)CC1" = 158 to 160 °C

***
# melting point of "O=C(Cc1ccc(Cl)cc1C(=O)O)Nc1cccc(/C=C/c2nc(C3CCC3)cs2)c1" = 223 to 225 °C

# melting point of "CCN(CC)OC(C(=O)O)(C(=O)O)c1ccccc1" = > 250 °C

Data origin, for the record: a melting point compilation (Tetko et al.; mined from patent text by program, amines drawn as free bases though some values may be those of a salt)
